- targetUnderTest: Metabotropic glutamate receptor 5 (Homo sapiens)
- Sequence (P41594 whole entry): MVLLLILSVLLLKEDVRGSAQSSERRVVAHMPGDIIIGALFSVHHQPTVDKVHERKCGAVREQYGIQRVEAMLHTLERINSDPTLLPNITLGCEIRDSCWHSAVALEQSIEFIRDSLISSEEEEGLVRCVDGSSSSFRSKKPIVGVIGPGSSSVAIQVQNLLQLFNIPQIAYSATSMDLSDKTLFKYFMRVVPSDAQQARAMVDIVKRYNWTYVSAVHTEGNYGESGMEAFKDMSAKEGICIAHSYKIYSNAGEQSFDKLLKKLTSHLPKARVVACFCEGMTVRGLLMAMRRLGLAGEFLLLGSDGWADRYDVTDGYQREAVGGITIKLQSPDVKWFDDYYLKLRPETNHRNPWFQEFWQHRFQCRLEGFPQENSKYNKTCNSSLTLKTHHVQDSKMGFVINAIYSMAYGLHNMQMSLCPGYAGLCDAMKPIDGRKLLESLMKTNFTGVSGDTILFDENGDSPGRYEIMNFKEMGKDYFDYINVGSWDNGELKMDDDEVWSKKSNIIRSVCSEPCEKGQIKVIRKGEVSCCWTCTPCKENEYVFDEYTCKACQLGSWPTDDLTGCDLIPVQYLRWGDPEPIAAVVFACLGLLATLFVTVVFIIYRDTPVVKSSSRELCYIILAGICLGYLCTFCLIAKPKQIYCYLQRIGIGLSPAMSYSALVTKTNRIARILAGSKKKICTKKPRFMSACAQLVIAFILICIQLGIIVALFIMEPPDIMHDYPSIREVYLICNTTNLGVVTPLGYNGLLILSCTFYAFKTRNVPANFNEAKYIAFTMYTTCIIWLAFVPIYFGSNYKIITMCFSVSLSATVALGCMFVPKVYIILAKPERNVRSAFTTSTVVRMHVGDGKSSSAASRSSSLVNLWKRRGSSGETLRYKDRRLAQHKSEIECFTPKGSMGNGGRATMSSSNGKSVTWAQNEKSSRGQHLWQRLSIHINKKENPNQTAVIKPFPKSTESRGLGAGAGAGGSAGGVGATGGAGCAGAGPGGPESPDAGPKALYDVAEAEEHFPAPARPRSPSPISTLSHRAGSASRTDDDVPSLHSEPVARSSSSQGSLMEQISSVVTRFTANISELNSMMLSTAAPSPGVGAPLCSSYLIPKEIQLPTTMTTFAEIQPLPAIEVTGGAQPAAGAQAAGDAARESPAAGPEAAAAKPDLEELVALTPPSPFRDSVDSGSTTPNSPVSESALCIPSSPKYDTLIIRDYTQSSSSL
- procedureText: Fold Shift of Agonist Curve Determination: The PAM potency was evaluated by performing an agonist concentration response curve in the presence of the compounds. The compounds at fixed concentration (0.01 or 0.1 or 1 μM) were applied 10 minutes before the incubation of the agonist (quisqualate or glutamate) dose-response curve. The fold shift was determined as ratio of EC50 agonist curves in presence and in absence of test compound.
endpointLabel: EC50

{"columns": ["chemicalSmiles", "endpointLabel", "measured"],
 "data": [
  ["COc1cc(OC)nc(C(=O)N2CC/C(=C\\C#Cc3cccc(Cl)c3)C(C)(C)C2)n1", "EC50", "51.7 nM"]
]}
